Measured cells in G2/M, listed per entry.
Test system: H460 cells
Assay: Cell cycle analysis (PI, flow cytometry), H460
Assay type: cell-based, human
Conditions: H460, IC90 doses, 24 h

- recordSmiles: "Cc1ccc([N+](=O)[O-])c2c(NCCCN(C)CCCNc3ccc4ncn5c6ccccc6c(=O)c3c45)c3ccccc3nc12"
  cells in G2/M, %: 27.37
- recordSmiles: "Cc1ccc([N+](=O)[O-])c2c(NCCCN(C)CCCNc3ccc4ncn5c6ccc(O)cc6c(=O)c3c45)c3ccccc3nc12"
  cells in G2/M, %: 28.15
- recordSmiles: "O=c1c2ccccc2n2cnc3ccc(NCCCN4CCN(CCCNc5c6ccccc6nc6cccc([N+](=O)[O-])c56)CC4)c1c32"
  cells in G2/M, %: 23.89
- recordSmiles: "CN(CCCNc1c2ccccc2nc2cccc([N+](=O)[O-])c12)CCCNc1ccc2ncn3c4ccccc4c(=O)c1c23"
  cells in G2/M, %: 21.64

Numbers sourced from paper PMC8955938.
